Tested on: 624824-186-R-J3-PDC multicell spheroids, viability;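 note: luminescent signal used as a stand-in for spheroid viability; spheroids exposed to agents for seven days before luminescence read; percent viability relative to DMSO vehicle control wells taken as 100%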
Experiment: Anticancer human tumor 624824-186-R-J3-PDC patient-derived colon adenocarcinoma cell line growth inhibition [PI3K]
Conditions: second compound 0.00316 µM; first compound 1 µM; active compounds read low
measuredParameter: viability, T/C (%)
Answers are plain numbers, in %.

compound	unitsText	numericValue
CCCS(=O)(=O)Nc1ccc(F)c(C(=O)c2c[nH]c3ncc(-c4ccc(Cl)cc4)cc23)c1F + CC(Nc1ccc2c(c1)OCCn1cc(N3C(=O)OCC3C(F)F)nc1-2)C(N)=O	%	88

# return viability, T/C for each item in the list
1. C=CC(=O)N1CCN(c2nc(=O)n(-c3c(C)ccnc3C(C)C)c3nc(-c4c(O)cccc4F)c(F)cc23)C(C)C1 (centres undefined) + COc1c(OCCCN2CCOCC2)ccc2c3n(c(=NC(=O)c4cnc(N)nc4)nc12)CCN3
2. CCN1CCN(Cc2ccc(Nc3ncc(F)c(-c4cc(F)c5nc(C)n(C(C)C)c5c4)n3)nc2)CC1 + COc1c(OCCCN2CCOCC2)ccc2c3n(c(=NC(=O)c4cnc(N)nc4)nc12)CCN3
3. CNC(=O)c1ccc(N2C(=S)N(c3ccc(C#N)c(C(F)(F)F)c3)C(=O)C2(C)C)cc1F + CC(Nc1ccc2c(c1)OCCn1cc(N3C(=O)OCC3C(F)F)nc1-2)C(N)=O

Result:
1: 97; 2: 94.8; 3: 87.4
